- assay_system: rat ortholog of the CGRP1 receptor (rat, UniProt Q63118 24-464; Q9JJ74 27-148, limits assumed)
- Sequence (Q63118 24-464 limits assumed, chain 1 of 2): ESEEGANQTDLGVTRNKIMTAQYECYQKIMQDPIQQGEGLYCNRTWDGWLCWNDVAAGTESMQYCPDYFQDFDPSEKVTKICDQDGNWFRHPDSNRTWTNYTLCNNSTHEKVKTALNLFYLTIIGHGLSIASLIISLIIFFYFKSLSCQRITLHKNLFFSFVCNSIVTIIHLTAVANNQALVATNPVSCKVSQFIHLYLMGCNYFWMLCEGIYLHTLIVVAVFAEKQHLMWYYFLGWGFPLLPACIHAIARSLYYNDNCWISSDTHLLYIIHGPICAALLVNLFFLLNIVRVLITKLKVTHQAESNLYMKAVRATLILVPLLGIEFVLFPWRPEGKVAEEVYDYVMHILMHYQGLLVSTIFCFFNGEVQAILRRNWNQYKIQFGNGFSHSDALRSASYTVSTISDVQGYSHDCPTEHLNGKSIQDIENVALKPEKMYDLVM
- Sequence (Q9JJ74 27-148 limits assumed, chain 2 of 2): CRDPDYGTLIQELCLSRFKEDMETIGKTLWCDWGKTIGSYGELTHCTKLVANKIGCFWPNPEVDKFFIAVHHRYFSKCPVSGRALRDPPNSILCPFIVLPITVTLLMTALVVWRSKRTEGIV
- procedure_details: cell-based or functional assay
Tick criterion met if in vitro IC50 (rat ortholog; nM) is 9 nM or greater. Tick criterion not met if in vitro IC50 (rat ortholog; nM) is less than 9 nM.

Reference set, count: 3
WVTHXLAGLLSXSGGVVXKNFVPTDVGPXAF (Ac-WVTH[Cit]LAGLLS[Cit]SGGVV[hArg]K(20 KPEGald)NFVPTDVGP[1-Nal]AF-NH2) [SEQ ID NO 173]	criterion met
Ac-WVTHRLAGLLSRSGGVVRKNFVPTDVGPFAF-NH2 [SEQ ID NO 808]	criterion not met
Ac-WVTHRLAGLLSRSGGVVRK(20 kDa MeO‑PEG)NFVPTDVGPFAF-NH2 [SEQ ID NO 809]	criterion not met

Input: Tell me whether in vitro IC50 (rat ortholog; nM) is at least 9 nM here: WVTHXLAGLLSXSGGVVRKNFVPTDVGPFAF (Ac-WVTH[Cit]LAGLLS[Cit]SGG VVRK^(20 kDa MeO-PEG)NFVPTDVGPFAF-amide) [SEQ ID NO 791]
Output: criterion met

All values here come from patent US20080020978A1.
